Experimental target: SMYD3 (Homo sapiens (Human), UniProt Q9H7B4)
Sequence (Q9H7B4 whole entry): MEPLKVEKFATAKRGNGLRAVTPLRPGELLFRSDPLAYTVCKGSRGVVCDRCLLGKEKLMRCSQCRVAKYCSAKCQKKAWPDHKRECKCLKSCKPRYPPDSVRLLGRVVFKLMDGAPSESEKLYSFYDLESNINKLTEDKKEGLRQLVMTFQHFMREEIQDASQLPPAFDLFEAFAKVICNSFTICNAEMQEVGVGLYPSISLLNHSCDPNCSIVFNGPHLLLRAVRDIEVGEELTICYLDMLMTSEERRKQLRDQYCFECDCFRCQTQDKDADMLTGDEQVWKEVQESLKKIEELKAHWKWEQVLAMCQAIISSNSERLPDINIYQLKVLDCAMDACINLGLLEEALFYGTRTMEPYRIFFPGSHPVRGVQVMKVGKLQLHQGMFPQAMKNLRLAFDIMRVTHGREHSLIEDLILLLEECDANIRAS
Assay text: SMYD3 biochemical assay (SPA, 3H-SAM methylation of MEKK2 protein substrate)
Details: average of n = 1 to n = 50; read-out: SMYD3 Biochem IC50
pIC50: −log10 of the molar value.
Outcome: true (1) for pIC50 of at least 7; false (0) for anything lower.

Please review the following examples before continuing.
Quick check, pIC50 >= 7? O=C(N[C@H]1CCN(S(=O)(=O)CC2CCCNC2)[C@@H](Cc2ccccc2)C1)c1cc(C2CC2)on1 (stereo partly drawn)
false (0)

Quick check, pIC50 >= 7? O=C(N[C@H]1CCN(S(=O)(=O)C2CCNC2)[C@@H](Cc2ccccc2)C1)c1cc(C2CC2)on1 (stereo partly drawn)
false (0)

Quick check, pIC50 >= 7? O=C(N[C@@H]1C[C@H]2CC[C@@H](C1)N2S(=O)(=O)C1CCCNC1)c1cc(C2CC2)on1 (stereo partly drawn)
false (0)

Quick check, pIC50 >= 7? `CC(C)NCCCS(=O)(=O)N1CC[C@H](NC(=O)c2cc(C3CC3)on2)C[C@@H]1C`
true (1)

Quick check, pIC50 >= 7? `C[C@@H]1C[C@@H](NC(=O)c2cc(C3CC3)on2)CCN1S(=O)(=O)N1CCNCC1`
true (1)

Further cases:
Quick check, pIC50 >= 7? CC1CN(S(=O)(=O)N2CC[C@H](NC(=O)c3cc(C4CC4)on3)C[C@@H]2C)CC(C)N1 (stereo partly drawn)
false (0)

Quick check, pIC50 >= 7? `C[C@@H]1C[C@H](NC(=O)c2cc(C3CC3)on2)CCN1C(=O)c1ccc(C2CCNCC2)cc1`
true (1)

###

Experimental target: SMYD3 (Homo sapiens (Human))
Assay text: SMYD3 biochemical assay (SPA, 3H-SAM methylation of MEKK2 protein substrate)
Details: Table 1A; IC50 values are an average of n = 1 to n = 50; read-out: SMYD3 Biochem IC50
Recorded endpoint: IC50

Worked set:
Item: O=C(N[C@H]1CCN(S(=O)(=O)CCCN2CCOCC2)[C@@H](Cc2ccccc2)C1)c1cc(C2CC2)on1 [compound 497] | IC50: > 10000 nM

Item: C[C@H]1C[C@@H](NC(=O)c2cc(C3CC3)on2)CCN1S(=O)(=O)c1cccc(C(F)(F)F)n1 [compound 519] | IC50: 204 nM

Further cases:
Item: O=C(N[C@@H]1C[C@H]2CC[C@@H](C1)N2S(=O)(=O)c1cc2oc(=O)[nH]c2cc1Cl)c1cc(C2CC2)on1 [compound 491] | IC50: > 10000 nM

Item: O=C(N[C@H]1C[C@H]2CC[C@@H](C1)N2S(=O)(=O)N1CCNCC1)c1cc(C2CC2)on1 [compound 527] | IC50: 3 nM

Item: C[C@@H]1C[C@@H](NC(=O)c2cc(C3CC3)on2)CCN1S(=O)(=O)c1ccc(N(C)CCN)nc1 [compound 508] | IC50: 320 nM

###

Experimental target: UniProt:Q9H7B4
Assay text: SMYD3 biochemical assay (SPA, 3H-SAM methylation of MEKK2 protein substrate)
Details: average of n = 1 to n = 50; read-out: SMYD3 Biochem IC50
pIC50: −log10 of the molar value.
Outcome: YES for pIC50 of at least 7; NO for anything lower.

Please review the following examples before continuing.
Quick check, pIC50 >= 7? `CC(=O)NCc1ccc(S(=O)(=O)N2CC[C@H](NC(=O)c3cc(C4CC4)on3)C[C@@H]2C)cc1`
NO

Quick check, pIC50 >= 7? `O=C(N[C@H]1CCN(S(=O)(=O)CC2CCN(CCCO)CC2)[C@@H](Cc2ccccc2)C1)c1cc(C2CC2)on1`
NO

Quick check, pIC50 >= 7? `C[C@H]1CN(S(=O)(=O)N(C)C2CCNCC2)CC[C@H]1NC(=O)c1cc(C2CC2)on1`
YES

Further cases:
Quick check, pIC50 >= 7? `C[C@H]1C[C@@H](NC(=O)c2cc(C3CC3)on2)CCN1S(=O)(=O)N1CCNC(C)(C)C1`
YES

Quick check, pIC50 >= 7? `CC[C@@H]1CN(S(=O)(=O)N2CC[C@H](NC(=O)c3cc(C4CC4)on3)C[C@@H]2C)CCN1C`
NO

Quick check, pIC50 >= 7? `CN(C1CCNCC1)S(=O)(=O)N1CC[C@@H](NC(=O)c2cc(C3CC3)on2)C[C@@H]1Cc1ccccc1`
NO

Quick check, pIC50 >= 7? `C[C@H]1C[C@@H](NC(=O)c2cc(C3CC3)on2)CCN1S(=O)(=O)N1CCN(C)[C@H](CCO)C1`
NO

Quick check, pIC50 >= 7? C[C@H]1C[C@@H](NC(=O)c2cc(C3CC3)on2)CCN1S(=O)(=O)N1CCNC(Cc2ccccc2)C1 (stereo partly shown)
NO

Quick check, pIC50 >= 7? `C[C@H]1CN(S(=O)(=O)CCN2CCCC2)[C@@H](C)C[C@H]1NC(=O)c1cc(C2CC2)on1`
NO

###

Experimental target: SMYD3 (Homo sapiens (Human), UniProt Q9H7B4)
Assay text: SMYD3 biochemical assay (SPA, 3H-SAM methylation of MEKK2 protein substrate)
Details: read-out: SMYD3 Biochem IC50*
pIC50: −log10 of the molar value.
Outcome: class 1 for pIC50 of at least 8; class 0 for anything lower.

Please review the following examples before continuing.
Quick check, pIC50 >= 8? O=C(N[C@H]1C[C@H]2CC[C@@H](C1)N2S(=O)(=O)N1CCNCC1Cc1ccccc1)c1cc(C2CC2)on1 (stereo partly shown) [compound 940]
class 0

Quick check, pIC50 >= 8? O=C(N[C@H]1C[C@H]2CC[C@@H](C1)N2S(=O)(=O)N1CCC(NCCCC(F)(F)F)CC1)c1cc(C2CC2)on1 [compound 794]
class 1

Quick check, pIC50 >= 8? O=C(N[C@H]1C[C@H]2CC[C@@H](C1)N2S(=O)(=O)[C@H]1CC[C@H](NCc2ccccc2)CC1)c1cc(C2CC2)on1 [compound 776]
class 1

We next turn to a different compound, shown below.
Quick check, pIC50 >= 8? CN(C1CCCNC1)S(=O)(=O)N1[C@@H]2CC[C@H]1C[C@@H](NC(=O)c1cc(C3CC3)on1)C2 (stereo partly shown) [compound 951]
class 0

###

Reported IC50 values for a set of compounds
Experimental target: SMYD3 (Homo sapiens (Human))
Assay text: SMYD3 biochemical assay (SPA, 3H-SAM methylation of MEKK2 protein substrate)
Details: read-out: SMYD3 Biochem IC50 (μM)*
Structures can show the parent of a compound that is named as a salt.
// return numeric value only (unit: µM, not printed)

Worked set:
Item: `NC[C@H](Cc1ccc(O)cc1)C(=O)N1CCC(NC(=O)c2cc(C3CC3)on2)CC1` | IC50: 0.342

Item: CC(C)c1cc(C[C@@H](CN)C(=O)N2CCC(NC(=O)c3cc(C4CC4)on3)CC2)ccc1O [Cpd. No. 121, hydrochloride salt] | IC50: 0.00957

Item: C[C@H]1C[C@@H](NC(=O)c2cc(C3CC3)on2)CCN1S(=O)(=O)C1CCOC1 (some centres unmarked) | IC50: 0.928

Item: `CCCCS(=O)(=O)N1CC[C@H](NC(=O)c2cc(C3CC3)on2)C[C@@H]1C` | IC50: 0.237

Item: C[C@@H]1CN(S(=O)(=O)CCN)CCC1NC(=O)c1cc(C2CC2)on1 (some centres unmarked) | IC50: 0.205

Now look at this entry.
Item: `C[C@H]1C[C@@H](NC(=O)c2cc(C3CC3)on2)CCN1S(=O)(=O)C1CC1` | IC50: 3.63

###

Experimental target: SMYD3 (Homo sapiens (Human))
Assay text: SMYD3 cell assay (Trimethyl-MEKK2 In-Cell Western in 293T/17 cells)
Type: cell-based
Details: Table 2A; read-out: SMYD3 Cell IC50
Class membership depends on IC50 alone; the intervals are b0: < 100 nM; b1: ≥ 100 nM and < 200 nM; b2: ≥ 200 nM

Band assignment needed for `C[C@H]1C[C@@H](NC(=O)c2cc(C3CC3)on2)CCN1S(=O)(=O)CCCNCc1ccc(C(F)(F)F)cc1` please.
b2

Band assignment needed for `C[C@H]1C[C@@H](NC(=O)c2cc(C3CC3)on2)CCN1S(=O)(=O)CC1CCN(CCN2CCCCC2)CC1` please.
b1

Band assignment needed for `C[C@H]1C[C@@H](NC(=O)c2cc(C3CC3)on2)CCN1S(=O)(=O)N1C2CCC1CNC2` please.
b2

Band assignment needed for `C[C@H]1C[C@@H](NC(=O)c2cc(C3CC3)on2)CCN1S(=O)(=O)CCCNCC1CCCCC1` please.
b2

###

Experimental target: SMYD3 (Homo sapiens (Human), UniProt Q9H7B4)
Assay text: SMYD3 biochemical assay (SPA, 3H-SAM methylation of MEKK2 protein substrate)
Details: read-out: SMYD3 Biochem IC50 (μM)*
Recorded endpoint: IC50 (µM)
// return numeric value only (unit: µM, not printed)

Worked set:
Item: CC[C@H]1CC(NC(=O)c2cc(C3CC3)on2)CCN1C(=O)[C@H]1CC[C@H](N)CC1 (stereo partly shown) | IC50: 2.38

Item: `N[C@H](Cc1ccc(O)cc1)CN1CCC(NC(=O)c2cc(C3CC3)on2)CC1` | IC50: 20.4

Item: C[C@@H]1CC(NC(=O)c2cc(C3CC3)on2)CCN1C(=O)[C@H]1CCC[C@H](N)C1 (stereo partly shown) | IC50: 0.728

Item: `NCC(=O)N[C@@H](Cc1c[nH]c2ccccc12)C(=O)N1CCC(NC(=O)c2cc(C3CC3)on2)CC1` | IC50: 0.947

Item: C[C@@H]1CC(NC(=O)c2cc(C3CC3)on2)CCN1C(=O)[C@@H](N)Cc1ccc(O)cc1 (stereo partly shown) | IC50: 2.97

Further cases:
Item: `C[C@@H]1C[C@@H](NC(=O)c2cc(C3CC3)on2)CCN1C(=O)CCCCN` | IC50: 2.67

Item: O=C(NC1CC2CCCC(C1)N2S(=O)(=O)CCN1CCCC1)c1cc(C2CC2)on1 (stereo not shown) | IC50: 1.11

Item: C[C@H]1CC(NC(=O)c2cc(C3CC3)on2)CCN1C(=O)[C@H]1CC[C@H](N(C)C)CC1 (stereo partly shown) | IC50: 20

Item: `C[C@@H]1C[C@@H](NC(=O)c2cc(C3CC3)on2)CCN1C(=O)c1ccc(C(C)(C)N)cc1` | IC50: 4.95

Item: `N[C@H]1CC[C@H](C(=O)N2CC[C@@H](NC(=O)c3cc(C4CC4)on3)[C@H](CO)C2)CC1` | IC50: 2.54

Item: `CNc1ncccc1S(=O)(=O)N1CC[C@H](NC(=O)c2cc(C3CC3)on2)C[C@@H]1C` | IC50: 3.74

Item: C[C@H]1C[C@@H](NC(=O)c2cc(C3CC3)on2)CCN1C(=O)C1CCCC(CN)C1 (stereo partly shown) | IC50: 2.47
